FYI, the data here is from BindingDB's records for doi:10.1021/jm100555f.

Kindly supply the reported EC50 values for the records listed here.
protocol description: Inhibition of Bcr-Abl in mouse BA/F3 cells

Sample records with EC50:
smiles notation: FC(F)(F)Oc1ccc(Nc2ncnc(NCCN3CCOCC3)n2)cc1
EC50: > 10 µM
--
smiles notation: FC(F)(F)Oc1ccc(Oc2cc(NCCN3CCOCC3)ncn2)cc1
EC50: > 10 µM
--
smiles notation: NC(=O)c1ccccc1-c1cc(Nc2ccc(OC(F)(F)F)cc2)ncn1
EC50: > 10 µM
--
smiles notation: CN(c1ccc(OC(F)(F)F)cc1)c1cc(-c2ccncc2)ncn1
EC50: > 10 µM
--
smiles notation: O=C(O)c1cc2c(Nc3ccc(OC(F)(F)F)cc3)ncnc2s1
EC50: > 10 µM

State recorded EC50 for all listed compounds.
1. FC(F)(F)Oc1cccc(Nc2cc(NCCN3CCOCC3)ncn2)c1
2. FC(F)(F)Oc1ccc(Nc2ccc(NCCN3CCOCC3)nn2)cc1
3. FC(F)(F)Oc1ccc(Nc2cc(-c3ccc4[nH]ccc4c3)ncn2)cc1

Given back:
> 10 µM
> 10 µM
0.29 µM

EC50 reading for `FC(F)(F)Oc1ccc(Nc2nccc(NCCN3CCOCC3)n2)cc1` : > 10 µM
